Origin of measurements: PubChem BioAssay (Tox21)

# assay-notes: qHTS assay to identify small molecule agonists of the estrogen receptor beta (ER-beta) signaling pathway - cell viability counter screen (AID 1259380); further: nearly all actives have a fitted effect of over 30% in size
# condition-summary: ER-beta-bla HEK293T viability, CellTiter-Glo luminescence, 16 h; series mostly up to 92.4 µM
Results filed as inconclusive are left out. Calls of active or inactive are those of the source. The call rests on the fitted dose curve; in most records, active means well fitted cell-killing curve with a large enough effect in the repeat runs; inconclusive means weak or mixed curves, or effect the other way; inactive means flat fitted curve, though single readings scatter.
Choose the fitting class; nothing outside 1 (yes) = active, 0 (no) = inactive is accepted.

Ask: Call for entry `COc1nccnc1CC(C)C` :
Result: 0 (no)

Ask: Call for entry `COc1cccc(O)c1` :
Result: 0 (no)

Ask: Call for entry `CC1(C)C(=O)N(CO)C(=O)N1CO` :
Result: 0 (no)

Ask: Call for entry `CCCCCCCOC(=O)c1ccccc1C(=O)OCCCCCCC` :
Result: 0 (no)

Ask: Call for entry C[n+]1c2cc(N)ccc2cc2ccc(N)cc21 (tested in a mixture with another compound) :
Result: 1 (yes)

---

# assay-notes: qHTS assay to identify small molecule antagonists of the farnesoid-X-receptor (FXR) signaling pathway - cell viability counter screen (AID 743221); further: nearly all actives have a fitted effect of over 50% in size
# condition-summary: FXR-bla HEK293T viability, CellTiter-Glo luminescence, 16 h; series mostly up to 62.6 µM
Results filed as inconclusive are left out. Active and inactive are the calls of the source. Calls come from the whole dose curve; as a rule, active = well fitted cell-killing curve with a large enough effect in the repeat runs (not every such curve was filed as active); inconclusive = weak or mixed curves, or effect the other way; inactive = no such curve, though single readings can be large or run the other way.
Choose the fitting class; nothing outside YES (active), NO (inactive) is accepted.

molecule	answer-label
CO[C@H]1C=CO[C@@]2(C)Oc3c(C)c(O)c4c(O)c(cc(O)c4c3C2=O)NC(=O)/C(C)=C\C=C/[C@H](C)[C@H](O)[C@@H](C)[C@@H](O)[C@@H](C)[C@H](OC(C)=O)[C@@H]1C	NO

Ask: Call for entry `NCCCCCCNCCCCCCN` :
Result: NO

Ask: Call for entry `CC(C)c1cccc(C(C)C)c1N1C(=O)c2ccc(O)cc2C1=O` :
Result: NO

Ask: Call for entry COC(=O)C1=C(C)NC(C)=C(C(=O)OCCCN2CCC(c3ccccc3)(c3ccccc3)CC2)C1c1cccc([N+](=O)[O-])c1 (configuration not stated) :
Result: YES

Ask: Call for entry `C(=C/c1ccccc1)/c1ccccc1` :
Result: NO

Ask: Call for entry `CCC1(c2cnc[nH]2)Cc2ccccc2C1` :
Result: NO

Ask: Call for entry `CCCCCCCCCCCCCC[n+]1ccccc1` :
Result: YES

---

# assay-notes: qHTS assay to identify small molecule agonists of the endoplasmic reticulum stress response signaling pathway (AID 1159516); further: on the % scale 0 is the no-effect control and ±100 the full control effect
# condition-summary: ESRE-bla HeLa, ER stress beta-lactamase reporter, 5 h; series mostly up to 61 µM
Inconclusive results are not listed. Calls of active or inactive are those of the source. The call rests on the fitted dose curve; in most records, active means well fitted activation curve with a large enough effect in the signal ratio in the repeat runs (not every such curve was filed as active); inconclusive means weak or mixed curves, or effect the other way; inactive means flat fitted curve, though single readings scatter; the % refers to the signal ratio.
readout-kind: outcome

Before answering, review these 5 worked examples.
                                   compound  readout_kind    result
0  C[C@@H]1CC[C@H]2C(C)(C)[C@H]3C[C@@]12CC[C@@]3(C)O       outcome  inactive
1  c1cc(OCC2CO2)cc(OCC2CO2)c1 (configuration not stated)       outcome  inactive
2  C=CC(C)(CCC=C(C)C)OC(=O)/C=C/c1ccccc1 (configuration not stated)       outcome  inactive
3          CC(C)N=C(N)/N=C(\N)Nc1ccc(Cl)cc1       outcome  inactive
4                             O=C(O)CC(=O)O       outcome  inactive

Record outcome per entry; entries follow.
1. CCN(CC)CCOc1ccc(C(O)(Cc2ccc(Cl)cc2)c2ccc(C)cc2)cc1 (configuration not stated)
2. c1cc2c3c(c1)ccc1cccc(c13)C2

Result:
["inactive", "inactive"]

---

# assay-notes: qHTS assay to identify small molecule agonists of the estrogen related receptor (ERR) signaling pathway from Tox21 library (AID 1224849); further: on the % scale 0 is the no-effect control and ±100 the full control effect; nearly all actives have a fitted effect of over 15% in size
# condition-summary: ERR reporter cell line, ONE-Glo luciferase, 18 h; at 92.4 µM (top of the series) unless noted
Active and inactive are the calls of the source. Calls follow the shape of the full dose curve.
readout-kind: activity change, positive = activation

Before answering, review these 8 worked examples.
compound	activity change, positive = activation
CO[C@H]1C=CO[C@@]2(C)Oc3c(C)c(O)c4c(O)c(cc(O)c4c3C2=O)NC(=O)/C(C)=C\C=C/[C@H](C)[C@H](O)[C@@H](C)[C@@H](O)[C@@H](C)[C@H](OC(C)=O)[C@@H]1C	-31.9% (inactive)
C=CC/C=C/C/C=C/C/C=C/C	3.56% (inactive)
CN(Cc1cc(Br)cc(Br)c1N)C1CCCCC1	-11.1% [at 42.5 µM] (inactive)
Clc1ccc(C(Cn2ccnc2)OCc2c(Cl)cccc2Cl)c(Cl)c1 (stereo unspecified)	-58.8% [at 42.5 µM] (inactive)
Cc1nc(Nc2ncc(C(=O)Nc3c(C)cccc3Cl)s2)cc(N2CCN(CCO)CC2)n1	-44.6% [at 42.5 µM] (inactive)
NCCCCCCNCCCCCCN	-13.7% (inactive)
O=C(Nc1ccc(Cl)c(Cl)c1)c1cc(Cl)cc(Cl)c1O	-15.1% (inactive)
O=C(c1ccccc1)c1cc(Cl)ccc1O	-10.3% (inactive)

Record activity change, positive = activation per entry; entries follow.
1. CC(C)(c1cc(Br)c(OCCO)c(Br)c1)c1cc(Br)c(OCCO)c(Br)c1
2. CC(C)=CCCC(C)O (stereo unspecified)
3. C[Si](C)(C)Cl

Result:
-67.7% (inactive)
0.538% (inactive)
0.496% (inactive)

---

# assay-notes: qHTS assay to identify small molecule antagonists of the constitutive androstane receptor (CAR) signaling pathway - cell viability counter screen (AID 1224837); further: nearly all actives have a fitted effect of over 45% in size
# condition-summary: HepG2-CYP2B6-hCAR viability, CellTiter-Fluor, 23 h, co-treated with 50 nM CITCO; series mostly up to 92.4 µM
Inconclusive results are not listed. Active and inactive are the calls of the source. The call rests on the fitted dose curve; in most records, active means well fitted cell-killing curve with a large enough effect in the repeat runs; inconclusive means weak or mixed curves, or effect the other way; inactive means flat fitted curve, though single readings scatter.
Choose the fitting class; nothing outside active, inactive is accepted.

Ask: Call for entry `CC(C)(C)C1=CC(=O)C=C(C(C)(C)C)C1=O` :
Result: inactive

Ask: Call for entry `CC1(C)C(=O)N(Br)C(=O)N1Br` :
Result: inactive

Ask: Call for entry `CC[N+](CC)(CC)Cc1ccccc1` :
Result: inactive

Ask: Call for entry `CC1=CCC(=O)O1` :
Result: inactive

Ask: Call for entry `CCc1cccc(CC)c1NC(=O)C(=O)O` :
Result: inactive

Ask: Call for entry `SCCCCCCCCS` :
Result: inactive

Ask: Call for entry OCCC(O)CO (stereo not given) :
Result: inactive

Ask: Call for entry `C[C@@]12C(=O)OC(=O)[C@]1(C)C1CCC2O1` :
Result: active

Ask: Call for entry `CCN(CC)CCOC(=O)C1(C2CCCCC2)CCCCC1` :
Result: inactive

Ask: Call for entry C=CC(C)C#N (stereo not given) :
Result: inactive

Ask: Call for entry `CCCCCCCC/C=C/CCCOC(C)=O` :
Result: inactive

Ask: Call for entry CCCCCCC(C)OC(=O)COc1nc(F)c(Cl)c(N)c1Cl (stereo not given) :
Result: inactive

Ask: Call for entry `C/C=C/CO` :
Result: inactive

Ask: Call for entry `CCCCCCCCCCCCOC(=O)c1cc(O)c(O)c(O)c1` :
Result: active

Ask: Call for entry `C/C=C/C(=O)Oc1c(CCCCCC(C)C)cc([N+](=O)[O-])cc1[N+](=O)[O-]` :
Result: active

---

# assay-notes: qHTS assay to identify small molecule agonists of the TGF-beta/Smad signaling pathway (AID 1346859); further: on the % scale 0 is the no-effect control and ±100 the full control effect
# condition-summary: SBE-bla HEK293T, TGF-beta/Smad beta-lactamase reporter, 5 h; series mostly up to 76.8 µM
Results filed as inconclusive are left out. Active and inactive are the calls of the source. The call rests on the fitted dose curve; in most records, active means well fitted activation curve with a large enough effect in the signal ratio in the repeat runs (not every such curve was filed as active); inconclusive means weak or mixed curves; inactive means flat fitted curve, though single readings scatter; the % refers to the signal ratio.
readout-kind: activation

                                   compound  readout_kind    result
0                                  [O]=[Zr]    activation  inactive
1                               ClC/C=C\CCl    activation  inactive
2                              C=CCCCCCCC=C    activation  inactive
3  CCCCCCCC/C=C\CCCCCCCC(=O)NCc1ccc(O)c(OC)c1    activation  inactive

Record activation per entry; entries follow.
1. CCC(C)c1ccccc1 (configuration not stated)
2. O=S(=O)(O)CCCN1CCOCC1
3. Cc1cccc(C)n1
4. CCCC(O)C(O)CO (configuration not stated)
5. Oc1ccc(-c2ccc(O)cc2)cc1
6. CC(C)=CCCC(C)CCOC(=O)C(C)C (configuration not stated)
7. CCc1cccc(CC)c1NC(=O)C(=O)O

Result:
1. inactive
2. inactive
3. inactive
4. inactive
5. inactive
6. inactive
7. inactive

Record activation per entry; entries follow.
1. Cc1cn[nH]c1
2. OCCC(O)CO (configuration not stated)
3. CCc1cccc(CC)c1N(COC)C(=O)CS(=O)(=O)O
4. CC1CCCCC1

Result:
inactive
inactive
inactive
inactive

Record activation per entry; entries follow.
1. Cc1cncc(C)c1
2. CCCSS/C(CCO)=C(\C)N(C=O)Cc1cnc(C)nc1N

Result:
inactive
inactive
